ASSAYED_TARGET: CREBBP (Homo sapiens (Human), UniProt Q92793)
Sequence (Q92793 1081-1197): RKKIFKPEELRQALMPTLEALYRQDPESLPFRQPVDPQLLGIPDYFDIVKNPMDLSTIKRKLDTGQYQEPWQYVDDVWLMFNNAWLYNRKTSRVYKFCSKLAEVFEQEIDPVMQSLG
pIC50: −log10 of the molar value.
METRIC_NAME: pIC50

Recorded pIC50, per entry:
>  <COMPOUND>
Cc1cn(C(=O)N(C)C)c2c1C(=O)N(c1cc(C)c3nnc(C)n3c1)C2c1ccc(Cl)cc1 (stereo not shown) [Example 10]

>  <REPORTED_MEASUREMENT>
4.84

$$$$
>  <COMPOUND>
CCOC(=O)N1CC(n2cc(C)c3c2C(c2ccc(Cl)cc2)N(c2cc(C)c4nnc(C)n4c2)C3=O)C1 (stereo not shown) [Example 8]

>  <REPORTED_MEASUREMENT>
5.29

$$$$
>  <COMPOUND>
Cn1ccc2c1C(c1ccc(C#N)cc1)N(c1cc(Cl)c(=O)n(C)c1)C2=O (stereo not shown) [Example 89]

>  <REPORTED_MEASUREMENT>
4.97

$$$$
>  <COMPOUND>
Cc1cc(N2C(=O)c3c(NC(=O)CN(C)C)cn(C)c3C2c2ccc(Cl)cc2)cn2c(C)nnc12 (stereo not shown) [Example 116]

>  <REPORTED_MEASUREMENT>
5.38

$$$$
>  <COMPOUND>
COc1ncccc1-c1cc2c(n1C)C(c1ccc(Cl)cc1)N(c1cc(C)c3nnc(C)n3c1)C2=O (stereo in doubt) [Example 135]

>  <REPORTED_MEASUREMENT>
6.33

$$$$

1 = Cc1cn(CC(=O)N(C)C)c2c1C(=O)N(c1cc(C)c3nnc(C)n3c1)C2c1ccc(Cl)cc1 (stereo not shown) [Example 129]
2 = Cc1cc(N2C(=O)c3c(C4CC4)c(C)n(C)c3C2c2ccc(Cl)cc2)cn2c(C)nnc12 (stereo not shown) [Example 122]
### Prompt Response body: label of entry with the larger pIC50; valid values 1 , 2 . Mark your selection by writing its label.
### Response 2

====

ASSAYED_TARGET: BRD4 (Homo sapiens (Human), UniProt O60885)
METRIC_NAME: IC50 (nM)

>  <MOLECULE>
Cc1cc(N2C(=O)c3c(C(=O)N(C)C)cn(C)c3C2c2ccc(Cl)cc2)cn2c(C)nnc12 (stereo not shown)

>  <IC50, nM>
30

$$$$
>  <MOLECULE>
COCCn1cc(C)c2c1C(c1ccc(Cl)cc1)N(c1cc(C)c3nnc(C)n3c1)C2=O (stereo not shown)

>  <IC50, nM>
62

$$$$
>  <MOLECULE>
Cc1cc(N2C(=O)c3c(NC(=O)CCN(C)C)cn(C)c3C2c2ccc(Cl)cc2)cc2c1nnn2C (stereo not shown)

>  <IC50, nM>
26

$$$$
>  <MOLECULE>
Cc1cc(N2C(=O)c3cc(-c4ccnc(C(F)(F)F)n4)n(C)c3C2c2ccc(Cl)cc2)cn(C)c1=O (stereo not shown)

>  <IC50, nM>
83

$$$$
>  <MOLECULE>
COc1cccc(-c2cc3c(n2C)C(c2ccc(Cl)cc2)N(c2cc(C)c(=O)n(C)c2)C3=O)n1 (stereo not shown)

>  <IC50, nM>
72

$$$$

a = Cc1cc(N2C(=O)c3c(C(=O)N(C)C)cn(C)c3C2c2ccc(Cl)cc2)nc2c1nnn2C (stereo not shown)
b = COc1ccc(C2c3c(ccn3C)C(=O)N2c2cc(Cl)c(=O)n(C)c2)cc1 (stereo not shown)
### Prompt Which has the smaller recorded IC50, a or b ? Answer with the label corresponding to your selection.
### Response a
(a: 12 nM, b: 890 nM)
